As an illustration, consider measured pIC50 for molecules on Lck (p56^lck) (Homo sapiens, UniProt P06239).
Sequence (P06239 whole entry, species assumed): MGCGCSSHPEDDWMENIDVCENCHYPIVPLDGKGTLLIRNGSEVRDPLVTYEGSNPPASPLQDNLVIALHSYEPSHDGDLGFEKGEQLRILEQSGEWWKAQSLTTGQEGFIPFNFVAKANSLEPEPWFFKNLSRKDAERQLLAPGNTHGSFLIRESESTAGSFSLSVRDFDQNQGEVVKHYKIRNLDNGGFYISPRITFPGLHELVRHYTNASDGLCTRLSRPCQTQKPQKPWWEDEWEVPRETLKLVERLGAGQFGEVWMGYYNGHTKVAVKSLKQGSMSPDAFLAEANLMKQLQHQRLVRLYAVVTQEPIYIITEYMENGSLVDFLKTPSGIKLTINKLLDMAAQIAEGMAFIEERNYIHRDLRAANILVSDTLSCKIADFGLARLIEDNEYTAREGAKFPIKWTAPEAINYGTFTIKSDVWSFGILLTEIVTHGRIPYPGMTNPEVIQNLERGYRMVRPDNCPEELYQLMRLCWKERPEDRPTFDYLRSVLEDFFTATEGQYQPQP
As a rule, pIC50 stands for the negative log10 of the concentration, concentration in M.

Look over these answered cases.
# molecule, pIC50
data = [
    ("CS(=O)(=O)NCCNC(=O)c1nc2nc(Nc3cccc(SCCO)c3)ncc2cc1-c1c(Cl)cccc1Cl [Example 3]", 8.70),
    ("N#Cc1nc2nc(Nc3ccc(N4CCOCC4)cc3)ncc2cc1-c1c(Cl)cccc1Cl [Example 7-2]", 7.93),
    ("CS(=O)(=O)NCCNC(=O)c1nc2nc(Nc3ccc(OCCO)cc3)ncc2cc1-c1c(Cl)cccc1Cl [Example 6-4]", 8.80),
]

Q) Enter recorded pIC50 with Lck (p56^lck) (Homo sapiens, UniProt P06239) for O=C(NC[C@H]1CCCN1)c1nc2nc(Nc3ccc(OCCO)cc3)ncc2cc1-c1c(Cl)cccc1Cl [Example 6-5] here.
A) 8.77

Q) Enter recorded pIC50 with Lck (p56^lck) (Homo sapiens, UniProt P06239) for Cc1ccc(Nc2ncc3cc(-c4c(Cl)cccc4Cl)c(C(=O)NCCNS(C)(=O)=O)nc3n2)cn1 [Example 6-8] here.
A) 8.11

Q) Enter recorded pIC50 with Lck (p56^lck) (Homo sapiens, UniProt P06239) for CS(=O)(=O)NCCNC(=O)c1nc2nc(Nc3cccc(NS(C)(=O)=O)c3)ncc2cc1-c1c(Cl)cccc1Cl [Example 6-6] here.
A) 8.89

Where do these numbers come from? They come from patent US7189732B2.
